- protocolSummary: GI tissue homogenate stability and DON release
- Assay type: in vitro ADME, C57BL/6/CES1-/- mouse
- particulars: C57BL/6/CES1-/-, mouse, GI tissue (jejunum) homogenate, pH 7.4
propertyMeasured: remaining at 1 h, 20 μM (%)
Please respond with the number in % and leave the unit unwritten.

Inquiry: Look up remaining at 1 h, 20 μM for this compound: CC(=O)N[C@@H](Cc1c[nH]c2ccccc12)C(=O)N[C@@H](CCC(=O)C=[N+]=[N-])C(=O)OC(C)C [DRP-104]
Reply text: 0
